# System: MS2 coat protein
# Assay remarks: apparent KD of MS2 coat protein; designed switch direction (-1 OFF switch, 1 ON switch): -1; higher = weaker reporter binding
# Condition: input ligand: FMN 200 uM
Known apparent KD of MS2 coat protein of a selection of sequences
Quantity kind: apparent KD of MS2 coat protein (nM)

sequence_code="CCAUAAAGGAAGGAUAUGCUAGACGAAAGUCUAGCAGAAGGUCCUACAUGAGGAUCACCCAUGUGGCCUCAUGG [Mat - Exclusion 6 - Eli Mod - D49] (Eterna round: R97, puzzle: Exclusion 6)" system_under_test="MS2 coat protein" quantity_kind="apparent KD of MS2 coat protein" value_reported=116
sequence_code="GCAAUUUCAAAGGAUAUACCUAAUUAACUAUCGGUAGAAGGUUGGACAUGAGGAUCACCCAUGUGCUCACACUU [Eternabot (L2) Solution 67] (Eterna round: R97, puzzle: Exclusion 6)" system_under_test="MS2 coat protein" quantity_kind="apparent KD of MS2 coat protein" value_reported=15.9
sequence_code="ACAUGAGGAUCACCCAUGUGAAAACAAUGGCUGACUUUGAGACAGGAUAUUCGUGCAUAUCAAACGAAGAAGGGUCAUUACUGG [Deportation 94 - Jieux - Exclusion NG 3] (Eterna round: R96, puzzle: Exclusion NG 3)" system_under_test="MS2 coat protein" quantity_kind="apparent KD of MS2 coat protein" value_reported=42.2
sequence_code="GAUUAUGCGAGCUUUAGGGACAUGAGGAUCACCCAUGUUCGUCUUAUUGGUCUGAAUACACUGACAUACCUAAAUCU [JMF 56] (Eterna round: R96, puzzle: Sensor v3, turn-off variant 1)" system_under_test="MS2 coat protein" quantity_kind="apparent KD of MS2 coat protein" value_reported=17.1

---

Entries and their apparent KD of MS2 coat protein
# Tested on: MS2 coat protein
# Assay remarks: apparent KD of MS2 coat protein; designed switch direction (-1 OFF switch, 1 ON switch): -1; higher = weaker reporter binding
# Condition: input ligand: none
Quantity kind: apparent KD of MS2 coat protein

sequence_code="AAAUAACCUCUAGGAUAUGUGUACGUAUAGUGCGCAGAAGGAGACAUGAGGAUCACCCAUGUACACACACAACAAACGACCACC (Eterna round: R96, puzzle: Exclusion NG 1)" system_under_test="MS2 coat protein" value_reported="0.0304 µM"
sequence_code="UACAUGAGGAUCACCCAUGUUUUGUCGUGUAUGGUAUUUAUCUAGGAUAUCGUUUUAUUUAACCACGAGAAGGAGAGUAUCAAU [MOD2 Solution 21 by JMF] (Eterna round: R96, puzzle: Exclusion NG 3)" system_under_test="MS2 coat protein" value_reported="0.0397 µM"
sequence_code="GUAGAGUCAGGAUAUACGAGAUCGAAAGAUCAGCGAUCCUUACAUGAGGAUCACCCAUGUAGAAGGGACUCUAC [Omei mod 11 to Eli's favorate candidate (ch.parushev)] (Eterna round: R97, puzzle: Exclusion 2)" system_under_test="MS2 coat protein" value_reported="0.0243 µM"

---

# System: K4 kissing-loop RNA reporter
# Assay remarks: apparent KD of K4 kissing-loop reporter; higher = weaker reporter binding
# Condition: Eterna round: R107; input ligand: tryptophan 2.4 mM
# reported apparent KD of K4 kissing-loop reporter; entries follow
Quantity kind: apparent KD of K4 kissing-loop reporter

sequence_code="AUUCGCAGUGAUGUUGCGAUUCCGUUGAGGGAGGAUAUUGGUAAUACAAGAAGGCCCGGCUGCGGGUGAUGUUCGCAUUAGGGCC [Exclusion FMN A GF18]" quantity_kind="apparent KD of K4 kissing-loop reporter" value_reported="126 nM"
sequence_code="CGAAGAGAGUGAUGUUCUCUAGGCAAAAGAAAGGAUAUAAUGUUUGUUAGAAGGUUCGGAAAAUGGAACGUCGGCCCGUACAACC [theeternabot_exclusion_KL_FMN_A_18]" quantity_kind="apparent KD of K4 kissing-loop reporter" value_reported="121 nM"
sequence_code="UGUAUGUGAUGUGAUACCAGUGAAGAGCCAGUGAUGUUGGUAGAACUGGUAUAUAAAUAACACCCUUGGCAGCACAGUCACGUAC [whbob_Ex_Theo_B_sa100]" quantity_kind="apparent KD of K4 kissing-loop reporter" value_reported="242 nM"
sequence_code="CAGAAGCAUUCGGCCGCCACUCCAGUGAUGUUGGAGCGGGAGGGCCUUAAACCUCGAGGCUGCUGGAGGACCGGGAAUGUUGAGG [Beerso]" quantity_kind="apparent KD of K4 kissing-loop reporter" value_reported="269 nM"
sequence_code="CUGGUUCAGUGAUGUUGGAAGGUUUAGGUGAAGGAUAUAUUGCAUAAUAGAAGGUCACGGCCAUGCAAUUAUUAACGUAGCCUGU [theeternabot_exclusion_KL_FMN_A_3]" quantity_kind="apparent KD of K4 kissing-loop reporter" value_reported="158 nM"
sequence_code="AUGCGCGCGGCGGCCGCCACUCGCAUGAGAGUGAUGUUCUCGCCGGGCCCGGAAGGGCCCGGUGUGAGGACCGGGCCGGGCUGCG [#2 Same State - Tryptophan B Attempt #17 (HarryS)]" quantity_kind="apparent KD of K4 kissing-loop reporter" value_reported="344 nM"

---

Recorded apparent KD of K4 kissing-loop reporter values for a group of sequences are listed next.
# Tested on: K4 kissing-loop RNA reporter
# Assay remarks: apparent KD of K4 kissing-loop reporter; higher = weaker reporter binding
# Condition: Eterna round: R107; input ligand: theophylline 20 uM
Quantity kind: apparent KD of K4 kissing-loop reporter (nM)

sequence_code="AAAUUCUUUUUUUUAUUUAACUUUUCAGAAGGAGCGUGGUAGUACACAGGUAGGUCGCUGAAUUUUGGACUAGUGAUGUUAGUUA [JR_SSArginiA_Sub007]" quantity_kind="apparent KD of K4 kissing-loop reporter" value_reported=228
sequence_code="CAUACGCAUGGAGGAUAUGAGAUUUUUCAUAUUACUUUUUAUUCUCAGUGAUGUUGGGAUUUGUAAUCAGAAGGCCAUGUGUAUG [#10 K4 FMN B Exclusion]" quantity_kind="apparent KD of K4 kissing-loop reporter" value_reported=110
sequence_code="CCUGAUCCUAGUGAUGUUAGGUCCAACGGCCGAGGACCGGUACGGCCGCCACUCGUCAAUUGGAAACAGCCCACGGGCACCGGGU [theeternabot_sameState_KL_Trp_A_19]" quantity_kind="apparent KD of K4 kissing-loop reporter" value_reported=814
sequence_code="AGUGAUGUGGGAAGGAGCGCUAGUACACUUCAGUGAUGUUGAAGUGAUGAAUUAGUGUAUUGGCAGGUAGGUCGCCUAGAUGUUA [KL-XARG-B14]" quantity_kind="apparent KD of K4 kissing-loop reporter" value_reported=65.4
sequence_code="CUAGGCCCUCGGCGGGACAUUGCGUGGGAAGGAGCGCAGAUAACUGCAGGUAGGUCGCCCAGUGAUGUUGGGCGAAUAUUGGUCA [Esinabige]" quantity_kind="apparent KD of K4 kissing-loop reporter" value_reported=120
sequence_code="GUGACCUACUCAGGAUAUCCGCAGUGAUGUUGCGGUUGGCCUGAGCGACAUGAAAAUCUUACUACAGGAGAAGGGAGAGGGUUAC [Leanteti]" quantity_kind="apparent KD of K4 kissing-loop reporter" value_reported=89.2
sequence_code="ACCAUCAAAGAUGGCCAGGACUCAACUGAUACCAGAGUGAAAACACUCCCUUGGCAGCAGGUGAGUGAUGUUCACGAGUCCUGGA [Omel KL Theo A SS B v7]" quantity_kind="apparent KD of K4 kissing-loop reporter" value_reported=168
sequence_code="CCCUCACGAGUGAUGUUCGUAGGGUACAGUCAGGAUAUCAUGCGGUUGAGAAGGGACAGAAAGGGCGGCCACGGGUUGCUCAUUU [Issogeso]" quantity_kind="apparent KD of K4 kissing-loop reporter" value_reported=492
sequence_code=GCCGUAGAUGGAAGGAGCGUGUCAAAGUGAUGUUUUGAUUAACUCCCUACGGGAUAGAUGACACAGGUAGGUCGCCAUCUACGGC quantity_kind="apparent KD of K4 kissing-loop reporter" value_reported=115
sequence_code="ACCGCAUUGGGAUGAUCCCAAUGCGCUGGUCGAGGACCGGUACGGCCGCCACUCGUCCAGUGAUGUUGGACUAGGGCAACUGAAG [Bileesma]" quantity_kind="apparent KD of K4 kissing-loop reporter" value_reported=303
sequence_code="CGCAAGCAGCCAGUGAUGUUGGCCGCCUUGCGAGGACCGGUACGGCCGCCACUCGAAGGCGGCUAGUAGUAGUCUGUCUAACGGA [KL-XTryp-A16]" quantity_kind="apparent KD of K4 kissing-loop reporter" value_reported=74
sequence_code=GGAUCGCAUGGCGAAAAGCCAUGCGAUCCACGAGGACCGGUACGGCCGCCACUCGCCGGAGUGAUGUUCCGCUACAGAUCUUAAA quantity_kind="apparent KD of K4 kissing-loop reporter" value_reported=144

---

# Test system: K4 kissing-loop RNA reporter;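 note: bound reporter read as fluorescence of individual clusters on recovered sequencing chips by microscopy, with normalized cluster intensities fitted with a binding model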
# Assay remarks: apparent KD of K4 kissing-loop reporter; higher = weaker reporter binding
# Condition: Eterna round: R107; input ligand: tryptophan 2.4 mM
Please mark condition met if the recorded apparent KD of K4 kissing-loop reporter is equal to or greater than 100 nM, and condition not met if it falls below.

sequence_code="ACGUCAUCAAAAGGAUAUGCAUCGAAGUGAUGUUUCGUCAUAUCAGUCUGAUUGCAGCAAUUAGGAGCAGAAGGUUUAGUCCGGU [theeternabot_exclusion_KL_FMN_B_11]" classification="condition not met"
sequence_code=AGUCCACUCUAAAGAGUGGACCUAAGGGAUACCAGUGAUGUUGGUCACCCUUGGCAGCCCACUGUCAUCGAUAAAGAUGGCAGGA classification="condition met"
sequence_code="AUCUAUGAGCGAGGAUAUGCAUGACGCGAGUGAUGUUCGCGAUGUGGGCGUGAUUAGUAAUAUGAAGCAGAAGGCGCACUCAUGA [Exclusion - FMW B / A]" classification="condition met"
sequence_code="GCACUUCUCAGUGAUGUUGAGUAAUCGGAAGGAGCGCGUGAAAACGCAGGUAGGUCGCCGAUACAUGAAGUAUCUUCGUGUGUGC [Arginine A K4 25]" classification="condition met"
sequence_code="UAAAUUAAGCUUUGCUGAUUAAUAAGCGAUACCAGCAAAUAAUGAUGCCCUUGGCAGCGUUAUAAUCUAGUGAUGUUAGAUUAGU [Not much to say about this one]" classification="condition not met"
sequence_code="GGUGUUGUUUGUGCCGUCUUCCUCGUUCCUCGAGGACCGGUACGGCCGCCACUCGAGUGAUGUUUGGGUAGCGAUCCCUGUUAGU [Bdazzled - #10 Exc. Tryptophan A]" classification="condition met"
sequence_code="AGAUCUAAGCUGAGUUAGUCACCAUAAAGCAAGGAUAUUCCACGAAGAAGAAGGUGCAUCAUCCAUAGUGAUGUUAUGGCACGGG [theeternabot_sameState_KL_FMN_A_7]" classification="condition met"
sequence_code=GCCGUAGAUUGAAGGAGCGCCUUCUUACCAAGAGUGAUGUUCUUUGGUACCAUGUUCAGCAGGCAGGUAGGUCGCAAUCUACGGC classification="condition met"
sequence_code="UGUUUUUUUUUGAUGUUUGUUGUAAAAUGGCAGGAUAUCGUAGAGGCGAGAAGGGCUUUUAUGCGUUAUGAGUGAUGUUUGUAGG [vevvmullin]" classification="condition met"
sequence_code="UAAUAUAAUCUGUCGUUUACAAUAUUUAGUCAGGAUAUCGUAUAUUCGAGAAGGGACACUAUCUAGUGAUGUUAGAUAUUUCUUU [JR_ExcFMNA_Sub014]" classification="condition not met"
sequence_code="CCUAUCUCAUACGAUACCAGUGAAUUAAUAUUUAUAAGCAGUGAUGUUGCAUUCCAAGUACACCCUUGGCAGCGUAUGGGAUAGG [Ex Theophylline B K4 20]" classification="condition met"
